Data provenance: PubChem BioAssay (NCI)

Tested on: IGROV1 ovarian
Experiment: NCI tumour cell line growth inhibition, 48 h
Exercise: for every item that follows, state its recorded TGI.
Your answer should be a plain number; it is taken to be in µM.

Record request: TGI value, item "CC1(C)[C@H]2CC[C@]1(C)[C@H](OC(=O)NNC(=O)O[C@@H]1C[C@@H]3CC[C@@]1(C)C3(C)C)C2"
30.4

Record request: TGI value, item "O=C(Cn1c(C(=O)/C=C/c2cccs2)nc2ccccc21)c1ccc(Cl)cc1"
77.7

###

Test system: OVCAR-4 ovarian
Test: NCI tumour cell line growth inhibition, 48 h
reported.metric: TGI

Record request: TGI value, item "Cc1c(NC(=O)CSC(=S)N2CCN(Cc3ccccc3)CC2)c(=O)n(-c2ccccc2)n1C"
> 100 µM

Record request: TGI value, item "CCN(C(=S)N[C@H](C(=O)N[C@@H](C)C(=O)OC)C(C)C)c1ccccc1"
> 100 µM

Record request: TGI value, item "CN(C)c1nc2oc(-c3ccccc3)c(-c3ccccc3)c2c2nnnn12"
> 100 µM

Record request: TGI value, item "O=CN/C=C/c1ccc(O)c(O)c1"
> 100 µM

Record request: TGI value, item COc1c2c(nc3ccccc13)-c1cc3c(c(=O)n1C2)COC(=O)C3(O)CC(=O)N1CCOCC1 (stereo not drawn)
> 100 µM

Record request: TGI value, item "COc1ccc2c(c1)c(CC(=O)O)c(C)n2C(=O)c1ccc(Cl)cc1"
> 100 µM

Record request: TGI value, item "COc1cc2cc[n+]3c(C)c4cc(OC)c(OC)cc4c([O-])c3c2cc1OC"
> 100 µM

Record request: TGI value, item "COc1ccc(C(=O)c2cc3c(N)c(C(=O)Nc4cccc5ccccc45)sc3nc2C)cc1"
> 50 µM

Record request: TGI value, item CN(C)c1ccc2c(c1)OC(N)=C(C#N)C2c1ccc2c(c1)CCO2 (stereo not drawn)
> 100 µM

Record request: TGI value, item "CCOC(=O)NC(=O)c1cn(CCCCCCOC(=O)NCCCCCCNC(=O)OCCCCCCn2cc(C(=O)NC(=O)OCC)c(=O)[nH]c2=O)c(=O)[nH]c1=O"
> 100 µM

Record request: TGI value, item "CCc1cccc(C)c1NC(=O)C(=O)Cc1nc2ccccc2s1"
> 100 µM

Record request: TGI value, item CC[N+]1(C)CCC(O)(c2ccc(Cl)c(Cl)c2)C(C(=O)c2ccc(Cl)c(Cl)c2)C1 (stereo not drawn)
> 10 µM

Record request: TGI value, item "O=c1oc2ccccc2cc1-c1cn2cc(Cl)ccc2n1"
12.8 µM

Record request: TGI value, item CCOc1cc(C2CC(c3ccc(NS(=O)(=O)c4cc([N+](=O)[O-])ccc4C)cc3)=NN2c2ccc([N+](=O)[O-])cc2[N+](=O)[O-])ccc1O (stereo not drawn)
11 µM

Record request: TGI value, item COc1ccccc1NC(=O)CC(=O)N1N=C(C)C(N=Nc2ccc(C(=O)O)cc2)C1=O (stereo not drawn)
> 100 µM

Record request: TGI value, item "COc1ccc(-c2c(C#N)c(S)n(NS(=O)(=O)c3ccc(C)cc3)c(=O)c2C#N)cc1"
> 100 µM

Record request: TGI value, item "CCNC(=O)c1cc(/C=C/c2ccc([N+](=O)[O-])o2)nc2ccccc12"
> 100 µM

Record request: TGI value, item "O=C(O)c1nc(-c2ccccc2)[nH]c1C(=O)O"
32.1 µM

Record request: TGI value, item "O=C1C(=O)c2ccccc2C(O)=C1CCCc1ccc(Oc2ccccc2)cc1"
> 100 µM

Record request: TGI value, item Cc1cccc(C(C)C)c1NC(=O)CC1C(=O)Nc2ccccc2S1(=O)=O (stereo not drawn)
29 µM

Record request: TGI value, item "Cc1ccc(Nc2nc(C)c(C(/C=C/c3ccc(/C=C/C(=N/NC(=O)C[n+]4ccccc4)c4sc(Nc5ccc(C)cc5[N+](=O)[O-])nc4C)cc3)=N\NC(=O)C[n+]3ccccc3)s2)c([N+](=O)[O-])c1"
> 100 µM

Record request: TGI value, item "COc1ccc2nc3cc([N+](=O)[O-])ccc3c(Nc3ccc(S(=O)(=O)NC(C)=O)cc3)c2c1"
> 100 µM

Record request: TGI value, item "CC1(C)[C@@H](OC(N)=O)[C@H]2O[C@H]2[C@]2(CO)[C@H]3CC[C@]4(C)[C@@H](c5ccc(=O)oc5)[C@@H](Cl)C[C@]4(O)C3=CC[C@@H]12"
0.0157 µM

Record request: TGI value, item "CC1=NN(c2nc(N)nc(/C(C#N)=C/c3cccn3-c3cc(Cl)cc(Cl)c3)n2)C(C)(C)C1"
> 100 µM

Record request: TGI value, item "O=C(Nc1nc2ccccc2s1)c1cc([N+](=O)[O-])ccc1Cl"
> 100 µM

Record request: TGI value, item "NCCCN(CCCN)CCN(CCN(CCCN)CCCN)CCN(CCCN)CCCN"
> 100 µM

Record request: TGI value, item "COc1ccc2c(c1)C(=O)c1c-2c(N(C)C)nc2ccccc12"
> 100 µM

Record request: TGI value, item CC1=C2C(=CC(C)(C)C2O)C(=O)C(C)(O)C12CC2 (stereo not drawn)
0.0209 µM

Record request: TGI value, item "O=S1(=O)OCCOS(=O)(=O)C1Cc1ccccc1"
> 100 µM

Record request: TGI value, item "COc1ccc(-c2cc(-c3cc4cc(Br)ccc4nc3Cl)c(C#N)c(N)n2)cc1"
> 12.5 µM

Record request: TGI value, item "CC(C)(Oc1ccc(Cl)cc1)C(=O)N(C(=O)N1CCC(c2ccccc2)CC1)c1ccccc1"
> 100 µM

Record request: TGI value, item "O=C(Nc1ccccc1)N(CCCCN(Cc1ccccc1)C(=O)Nc1ccccc1)Cc1ccccc1"
> 100 µM

Record request: TGI value, item "COC(=O)[C@H]1CO[C@H]2C/C(C)=C/CC/C(C)=C/CC[C@@]3(C)O[C@@H]3C[C@H]21"
> 50 µM

Record request: TGI value, item O=c1c2ccccc2nc(-c2ccccc2)n1NC1OC(CO)C(O)C(O)C1O (stereo not drawn)
> 100 µM

Record request: TGI value, item "CSC1=N/C(=C\c2ccco2)C(=O)N1CN1CCOCC1"
> 100 µM

Record request: TGI value, item "Cc1ccc2c(c1C)C(=O)/C(=C/c1ccccc1C(=O)O)C2"
> 100 µM

Record request: TGI value, item "CC1(c2ccc[n+](Cc3ccccc3)c2)OCCO1"
> 100 µM

Record request: TGI value, item "O=c1cc(N2CCN(c3cc(=O)n4ccccc4n3)CC2)oc2ccccc12"
> 100 µM
